# STUDY TARGET: T1, DFNB31_1, Q9P202
# T1 sequence (Q9P202 135-233, limits assumed, looked up): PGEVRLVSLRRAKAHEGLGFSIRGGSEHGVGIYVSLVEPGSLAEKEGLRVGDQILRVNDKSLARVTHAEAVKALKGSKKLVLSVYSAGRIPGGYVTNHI
# ASSAY INFO: holdup assay
# Design: key: below the threshold = too weak to quantify, mostly under pKd 3.1 to 4
# ASSAY SETUP: plain residues with an end cap or a label only (N-terminal biotin on a linker: ttds)
Answer condition not met if pKd is under 4, and condition met if it is 4 or more.

BINDER | CLASS ASSIGNMENT
FVETQHQTQV [FAT3, Q8TDW7] | condition not met
SRSRRRETAL [HPV33-E6, P06427] | condition not met
PSRDRKETSI [RALBP1, Q15311] | condition met
SHSSKGETAV [FZD7, O75084] | condition not met
SSIDLWETAL [SLC15A5, A6NIM6] | condition met
